Data provenance: paper PMC12657942

# ASSAY_REMARKS: Solubility of rizatriptan in supercritical CO2, static gravimetric method
# Type: physicochemical
# ASSAY_SETUP: supercritical CO2, T 318.0 K (text 318.2 K), P 27 MPa, ρCO2 872.14 kg/m^3; read-out: Solubility in supercritical carbon dioxide
# Description: A specialized high-pressure system is employed to measure the solubility of rizatriptan using gravimetric techniques in a supercritical CO2[6]. A 200 mL vessel capable of withstanding pressures up to 35 MPa and temperatures up to 423 K is prepared with leak-free seals, valves, and fittings. All valves and connectors were 1/8 inch in size. The system’s pressure and temperature sensors are calibrated for accuracy. […] The pressure is monitored and held within ± 0.01 MPa. […]
TEST_READOUT: solubility at 240 min (mg/mL)
One number for each entry, in mg/mL.

**Query** So what's the measured solubility at 240 min for this one? CN(C)CCc1c[nH]c2ccc(Cn3cncn3)cc12 [Rizatriptan, Rizatriptan benzoate]
**Result** 0.25
